Exercise: for every item that follows, state its recorded Yield.
experimental_details: Protein yield of PodA variants purified from inclusion bodies of overexpression culture
test_conditions: purified from inclusion bodies, per L of E. coli overexpression culture
Write the quantity with the unit trailing the number.

Yield lookup needed for PodA5: Designed PodA41-162 variant: I73L, A87I, M99V, A129V, K141T (protein) VTMTLDVKNDQVAKHDFGKPGMDVGDMDIFSDLLSVDGKQVGYDGGICFFTNVTPDNPVTYCELTIHLDAGEIFARSLTPHTLAPFTMVITGGTGEYANSTGELTVSGVATPDEKYELKLTK , thanks.
9.9 mg/L^−1

Follow-up entry: PodA8: Designed PodA41-162 variant: A53N, I73R, A87V, T91V, A129V (protein) VTMTLDVKNDQVNKHDFGKPGMDVGDMDIFSDRLSVDGKQVGYDGGVCFFVNVTPDNPMTYCELTIHLDAGEIFARSLTPHTLAPFTMVITGGTGEYANSKGELTVSGVATPDEKYELKLTK
2.1 mg/L^−1

Follow-up entry: PodA10: Designed PodA41-162 variant: A53N, I73T, A87V, M99V, A129T; SEQ ID NO: 4 (protein) MVTMTLDVKNDQVNKHDFGKPGMDVGDMDIFSDTLSVDGKQVGYDGGVCFFTNVTPDNPVTYCELTIHLDAGEIFARSLTPATLAPFTMTITGGTGEYANSKGELTVSGVATPDEKYELKLTK
5.92 mg/L^−1

Follow-up entry: WT PodA41-162: Truncated wild-type pyocyanin demethylase from Mycobacterium fortuitum (MFORT_14352) lacking N-terminal membrane helix, SEQ ID NO: 3 (protein) VTMTLDVKNDQVAKHDFGKPGMDVGDMDIFSDILSVDGKQVGYDGGACFFTNVTPDNPMTYCELTIHLDAGEIFARSLTPHTLAPFTMAITGGTGEYANSKGELTVSGVATPDEKYELKLTK
0.33 mg/L^−1

Follow-up entry: PodA6: Designed PodA41-162 variant: I73R, A87V, T91V, M99V, A129T (protein) VTMTLDVKNDQVAKHDFGKPGMDVGDMDIFSDRLSVDGKQVGYDGGVCFFVNVTPDNPVTYCELTIHLDAGEIFARSLTPHTLAPFTMTITGGTGEYANSKGELTVSGVATPDEKYELKLTK
4.4 mg/L^−1

Follow-up entry: PodA7: Designed PodA41-162 variant: I73L, A87I, T91V, M99T, A129V (protein) VTMTLDVKNDQVAKHDFGKPGMDVGDMDIFSDLLSVDGKQVGYDGGICFFVNVTPDNPTTYCELTIHLDAGEIFARSLTPHTLAPFTMVITGGTGEYANSKGELTVSGVATPDEKYELKLTK
4.1 mg/L^−1

Follow-up entry: PodA9: Designed PodA41-162 variant: I73K, A87V, T91V, A129V, K141T (protein) VTMTLDVKNDQVAKHDFGKPGMDVGDMDIFSDKLSVDGKQVGYDGGVCFFVNVTPDNPMTYCELTIHLDAGEIFARSLTPHTLAPFTMVITGGTGEYANSTGELTVSGVATPDEKYELKLTK
1.28 mg/L^−1
